# Target system: T1, human CD3 on CD3+ Jurkat cells (human, UniProt P07766 23-207)
# T1 construct: whole, on cells; Native CD3 complex on cells; the other CD3 chains are not specified for this assay; also called Human CD3+ Jurkat
# T1 sequence (P07766 23-207): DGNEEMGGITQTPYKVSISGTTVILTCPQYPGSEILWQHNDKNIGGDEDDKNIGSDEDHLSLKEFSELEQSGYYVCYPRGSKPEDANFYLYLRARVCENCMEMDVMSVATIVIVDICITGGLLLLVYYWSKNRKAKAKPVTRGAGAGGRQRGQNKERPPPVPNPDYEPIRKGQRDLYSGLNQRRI
# Experiment: flow cytometry on CD3+ Jurkat cells, ratio of MFI at pH 6.0 to pH 7.4
Assay readout: MFI pH 6.0/MFI pH 7.4
The reply should be a number, written without any unit.

Known MFI pH 6.0/MFI pH 7.4 results, listed for orientation:
SAD10318_P01_D01 (ADI-48576) (antibody, V domains shown, IgG; also called Ab182) VH: QVQLVQSGAEVKKPGASVKVSCKASGFNIKDYYMHWVRQAPGQRLEWMGWIDLENANTIYDAKFQGRVTITRDTSASTAYMELSSLRSEDTAVYYCARDAYHRYFYDHWGQGTLVTVSS VL: DIVMTQSPDSLAVSLGERATINCKSSQSLLNAHTGKNHLAWYQQKPGQPPKLLIYWASTRESGVPDRFSGSGSGTDFTLTISSLQAEDVAVYYCKQSHSHRTFGGGTKVEIK = 20.1
SAD10318_P02_C05 (ADI-48597) (antibody, V domains shown, IgG; also called Ab180) VH: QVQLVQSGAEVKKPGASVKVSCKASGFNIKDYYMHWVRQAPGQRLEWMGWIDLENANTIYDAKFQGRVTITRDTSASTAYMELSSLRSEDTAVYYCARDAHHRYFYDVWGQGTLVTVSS VL: DIVMTQSPDSLAVSLGERATINCKSSQSLLNARTGHNHLAWYQQKPGQPPKLLIYWASTRESGVPDRFSGSGSGTDFTLTISSLQAEDVAVYYCKQSHSHRTFGGGTKVEI = 21.7
SAD10318_P01_C01 (ADI-48575) (antibody, V domains shown, IgG; also called Ab113) VH: QVQLVQSGAEVKKPGASVKVSCKASGFNIKDYYMHWVRQAPGQRLEWMGWIDLENANTIYDAKFQGRVTITRDTSASTAYMELSSLRSEDTAVYYCARDAYHRYHYDVWGQGTLVTVSS VL: DIVMTQSPDSLAVSLGERATINCKSSQSLLNAHTHKNYLAWYQQKPGQPPKLLIYWASTRESGVPDRFSGSGSGTDFTLTISSLQAEDVAVYYCKQSHSHRTFGGGTKVEIK = 38.4
SAD10318_P04_A12 (ADI-48618) (antibody, V domains shown, IgG; also called Ab224) VH: QVQLVQSGAEVKKPGASVKVSCKASGFNIKDYYMHWVRQAPGQRLEWMGWIDLENANTIYDAKFQGRVTITRDTSASTAYMELSSLRSEDTAVYYCARDAYHRHFYDVWGQGTLVTVSS VL: DIVMTQSPDSLAVSLGERATINCKSSQSLLHPRTGKNYLAWYQQKPGQPPKLLIYWASTRESGVPDRFSGSGSGTDFTLTISSLQAEDVAVYYCKQSYHHRTFGGGTKVEIK = 4.2

Now, please, on to the next binder.
Query: Field request: MFI pH 6.0/MFI pH 7.4 | item: SAD10318_P02_A05 (ADI-48595) (antibody, V domains shown, IgG; also called Ab178) VH: QVQLVQSGTEVKKPGASVKVSCKASGFNIKDYYMHWVRQAPGQRLEWMGWIDLENANTIYDAKFQGRVTITRDTSASTAYMELSSLRSEDTAVYYCARDAYHRYFYDHWGQGTLVTVSS VL: DIVMTQSPDSLAVSLGERATINCKSSQSLLNSHTGKNYLAWYQQKPGQPPKLLIYWASTRESGVPDRFSGSGSGTDFTLTISSLQAEDVAVYYCKQSYSRRTFGGGTKVEIK
Result: 1.2
